# half-life annotations
# assay details: Half-life in rat serum
# Assay type: ADME, organism-based
endpoint: half-life

- CCCC[C@H](NC(=O)[C@@H](CO)NC(=O)CN(CCCN)C(=O)O[C@]1(CC)C(=O)OCc2c1cc1n(c2=O)Cc2cc3ccccc3nc2-1)C(=O)N[C@H](Cc1ccc(O)cc1)C(=O)N[C@H](CO)C(=O)N[C@@H]1CSSC[C@H](C(=O)N[C@H](C(N)=O)[C@@H](C)O)NC(=O)[C@H]([C@@H](C)O)NC(=O)[C@H](CCCN)NC(=O)[C@@H](Cc2c[nH]c3ccccc23)NC(=O)[C@H](Cc2ccccc2)NC1=O: 72 h
- CCCC[C@H](NC(=O)[C@@H](CO)NC(=O)CN(CCN)C(=O)O[C@]1(CC)C(=O)OCc2c1cc1n(c2=O)Cc2cc3ccccc3nc2-1)C(=O)N[C@H](Cc1ccc(O)cc1)C(=O)N[C@H](CO)C(=O)N[C@@H]1CSSC[C@H](C(=O)N[C@H](C(N)=O)[C@@H](C)O)NC(=O)[C@H]([C@@H](C)O)NC(=O)[C@H](CCCN)NC(=O)[C@@H](Cc2c[nH]c3ccccc23)NC(=O)[C@H](Cc2ccccc2)NC1=O: 106 h
- CCCC[C@H](NC(=O)[C@@H](CO)NC(=O)CN(CCNC)C(=O)O[C@]1(CC)C(=O)OCc2c1cc1n(c2=O)Cc2cc3ccccc3nc2-1)C(=O)N[C@H](Cc1ccc(O)cc1)C(=O)N[C@H](CO)C(=O)N[C@@H]1CSSC[C@H](C(=O)N[C@H](C(N)=O)[C@@H](C)O)NC(=O)[C@H]([C@@H](C)O)NC(=O)[C@H](CCCN)NC(=O)[C@@H](Cc2c[nH]c3ccccc23)NC(=O)[C@H](Cc2ccccc2)NC1=O: 18 h

###

# target: Somatostatin receptor
# assay details: Cytotoxic activity against human neuroblastoma IMR32 cells which over-express somatostatin receptors
# Type: functional, cell-based
# run parameters: imr-32
Some compounds, each annotated with its measured IC50.
endpoint: IC50 (nM)

* CCCC[C@H](NC(=O)[C@@H](CO)NC(=O)CN(CCN)C(=O)Oc1cc(/C=C\c2cc(OC)c(OC)c(OC)c2)ccc1OC)C(=O)N[C@H](Cc1ccc(O)cc1)C(=O)N[C@H](CO)C(=O)N[C@@H]1CSSC[C@H](C(=O)N[C@H](C(N)=O)[C@@H](C)O)NC(=O)[C@H]([C@@H](C)O)NC(=O)[C@H](CCCN)NC(=O)[C@@H](Cc2c[nH]c3ccccc23)NC(=O)[C@H](Cc2ccccc2)NC1=O | 2.79
* CCCC[C@H](NC(=O)[C@@H](CO)NC(=O)CN(CCN(C)C)C(=O)O[C@]1(CC)C(=O)OCc2c1cc1n(c2=O)Cc2cc3ccccc3nc2-1)C(=O)N[C@H](Cc1ccc(O)cc1)C(=O)N[C@H](CO)C(=O)N[C@@H]1CSSC[C@H](C(=O)N[C@H](C(N)=O)[C@@H](C)O)NC(=O)[C@H]([C@@H](C)O)NC(=O)[C@H](CCCN)NC(=O)[C@@H](Cc2c[nH]c3ccccc23)NC(=O)[C@H](Cc2ccccc2)NC1=O | 571
* CCCC[C@H](NC(=O)[C@@H](CO)NC(=O)CN(CCNC)C(=O)O[C@]1(CC)C(=O)OCc2c1cc1n(c2=O)Cc2cc3ccccc3nc2-1)C(=O)N[C@H](Cc1ccc(O)cc1)C(=O)N[C@H](CO)C(=O)N[C@@H]1CSSC[C@H](C(=O)N[C@H](C(N)=O)[C@@H](C)O)NC(=O)[C@H]([C@@H](C)O)NC(=O)[C@H](CCCN)NC(=O)[C@@H](Cc2c[nH]c3ccccc23)NC(=O)[C@H](Cc2ccccc2)NC1=O | 54.2
* CC[C@@]1(O)C(=O)OCc2c1cc1n(c2=O)Cc2cc3ccccc3nc2-1 [CAMPTOTHECIN] | 2.21

This collection of values is drawn from ChEMBL document CHEMBL1136609.
